assay: protease stability score; higher = more stable; yeast display proteolysis, trypsin and chymotrypsin;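 note: relative to predicted unfolded state with 0 unfolded-like and 1 meaning tenfold more protease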
readout-name: protease stability score

biosequence: DEEEKEDHKMLHDFIHLWLTGDEEDWSHLADPRTRLILIQGDKVIDRHGMELASEELRRILEEMRVDDFKVEHVEVINGKSKVHGKTDVTFNGKREIIDIHIELHVVNGRMKTVKMVWI
readout-name: protease stability score
measured-result: 0.927
//
biosequence: DEEEEEMRKMIDEILKDQATGDEDRLKKLLDPNMRSEINGKDLHGREIVTETLAHLFRFLGIKHVHLNDYRIQGDKVEIYGELEINGQKHTNKIHAEKVNGKWVISEMRLH
readout-name: protease stability score
measured-result: 1.43
//
biosequence: DHHEHDTKILMDLWLHALTTGDWRLLAELADPHVRFEVEFDGRRIEYHGRHSFEEHMKRLVDKIKNLTLTIHDVRVIGDFVHIEGETTWDGRTSSIHIHLKVINGRVKHIKVEER
readout-name: protease stability score
measured-result: 1.92
//
biosequence: NKMMEEIHHWLRLLIENEITGDEEKSLHLADPEARIDFDGVEIHGWERFLKFVEEKLKLLGARVEDIKIHDYRIIDGRLHIDSRVHIEINGVRQTREREIVSRKVNGRWLVNSLHFR
readout-name: protease stability score
measured-result: 0.607
//
biosequence: SEEEDEIRKMLEEVLKNWRTGNEERIYELADPNTRVEIDGREHHGRHVVAHLIKEWRIHDFILRRVDVQGNKVIIHGELEGEFDGKRTNLHTNLVLVKIDGRWVIESLHYV
readout-name: protease stability score
measured-result: 1.41
//
biosequence: SEEEKEARESIHRFEAALKTGNEESLFELLDPHVRIDVNGQELHGWKEWKHIVHENKKRVKGARFRIHHIEIINGRIHLDGEVSINGKDIRTEYIIEKIDGVWRLTEVIIR
readout-name: protease stability score
measured-result: 1.28
